Reference source for all entries: ChEMBL document CHEMBL1146738

Each entry below carries its reported inhibition.
Target: Glucose-6-phosphatase catalytic subunit 1 (Rattus norvegicus)
Assay: In vitro inhibition of glucose-6-phosphatase obtained from rat was determined at 100 uM concentration
Reply with just the number (in %).

CCOC(=O)CC/N=C(\S)Nc1ccccn1	18
COC(=O)C(Cc1c[nH]c2ccccc12)/N=C(\S)Nc1ccccn1 (configuration not stated)	21.5
COC(=O)C(C)/N=C(\S)Nc1ccccn1 (configuration not stated)	17.7

Q. I am curious: what inhibition value has been reported for `COC(=O)C/N=C(\S)Nc1ccc(Cl)cn1` ?
A. 74.6

Q. Similarly, `N=C(N)/N=C(\S)Nc1ccccn1` ?
A. 20

Q. Try CCOC(=O)C(Cc1ccccc1)/N=C(\S)Nc1ccc(Cl)cn1 (configuration not stated) next.
A. 50

Q. Try the molecule `N/N=C(\S)Nc1ccccn1`
A. 38.5

###

Target: Glucose-6-phosphatase catalytic subunit 1 (Rattus norvegicus)
Sequence (whole entry): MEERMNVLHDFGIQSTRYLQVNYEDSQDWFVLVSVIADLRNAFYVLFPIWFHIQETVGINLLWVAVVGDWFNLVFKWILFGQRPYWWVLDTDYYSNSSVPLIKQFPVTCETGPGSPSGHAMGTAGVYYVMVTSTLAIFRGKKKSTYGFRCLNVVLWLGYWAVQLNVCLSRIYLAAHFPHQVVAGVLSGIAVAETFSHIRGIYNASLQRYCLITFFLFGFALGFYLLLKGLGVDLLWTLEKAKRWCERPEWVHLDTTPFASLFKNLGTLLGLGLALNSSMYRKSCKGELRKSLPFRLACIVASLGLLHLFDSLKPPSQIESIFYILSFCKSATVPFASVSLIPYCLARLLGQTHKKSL
Assay: In vitro inhibition of glucose-6-phosphatase obtained from rat was determined at 100 uM concentration
Here the recorded inhibition is given for each entry.
// units = %; emit number, no label

CCOC(=O)CC/N=C(\S)Nc1ccc(Cl)cn1	54.4
COC(=O)C(Cc1c[nH]c2ccccc12)/N=C(\S)Nc1ccc(Cl)cn1 (stereo not drawn)	52.2

Then there is this compound:
Q. For the compound shown here, CCOC(=O)C(Cc1ccccc1)/N=C(\S)Nc1ccccn1 (stereo not drawn) , give the reported inhibition.
A. 29
